Values compiled from patent US4122199A.

PROTOCOL: Solubility characteristics
Type: physicochemical
STUDY_CONDITIONS: propylene glycol; % soluble
Where a name gives a salt, the structure may show the parent alone.
Measured Solubility in propylene glycol accompanies every entry in the list below.
State just the number; it will be interpreted in %.

O=C(NCCN1CCCC1)c1cc2ccccc2oc1=O [Example 14, hydrochloride]; 7

Would you mind telling me what Solubility in propylene glycol value was observed for O=C(NCCN1CCCC1)N1c2ccccc2Sc2ccccc21 [F 1461, hydrochloride] ?
10

Returns the measured Solubility in propylene glycol for the input compound. Input: O=C(NCCN1CCCC1)C(c1ccccc1)c1ccccc1 [F 1459, hydrochloride]
3

Given CCC(C(=O)NCCN1CCCC1)c1ccccc1 (stereo not drawn) [F 1419, hydrochloride] , state its recorded Solubility in propylene glycol.
25

Give the measured Solubility in propylene glycol of O=C(NCCN1CCCC1)C1c2ccccc2Oc2ccccc21 [F 1534, hydrochloride] .
10

Would you mind telling me what Solubility in propylene glycol value was observed for Cc1cc(Br)cc(C(=O)NCCN2CCCC2)c1O [Example 9, hydrochloride] ?
7

---

PROTOCOL: in vivo
STUDY_CONDITIONS: mouse, in vivo, ip, mice; intraperitoneal; isotonic aqueous solution; read-out: DL 50 intraperitoneal
Counter-ions that a name gives are not always drawn.
We label by threshold. Values of LD50 strictly beneath 200 mg/kg are T. Values of 200 mg/kg and up are F.

Consider the worked cases shown below.
CC(C)(Oc1ccccc1)C(=O)NCCN1CCCC1 [F 1540, hydrochloride]; F
CCOC(C(=O)NCCN1CCCC1)(c1ccccc1)c1ccccc1 [F 1460, hydrochloride]; T
O=C(COc1ccc(Cl)cc1)NCCN1CCCC1 [F 1539, hydrochloride]; T

Problem: For the compound O=C(NCCN1CCCC1)C1c2ccccc2-c2ccccc21 [F 1532, hydrochloride] , is LD50 under 200 mg/kg?
T

For O=C(C=Cc1ccccc1)NCCN1CCCC1 [F 1542, N(2'-pyrrolidino-ethyl)cinnamide, HCl] , is the recorded LD50 below the cut-off of 200 mg/kg?
T

Regarding O=C(NCCN1CCCC1)N1c2ccccc2Sc2ccccc21 [F 1461, hydrochloride] , kindly confirm whether its LD50 is beneath 200 mg/kg.
T

In the record for COc1cc(C(=O)NCCN2CCCC2)cc(OC)c1OC [F 1538, hydrochloride] , is LD50 less than 200 mg/kg?
F

Is the reported LD50 for O=C(NCCN1CCCC1)C1c2ccccc2Oc2ccccc21 [F 1534, hydrochloride] strictly below 200 mg/kg?
T

Below 200 mg/kg on LD50? Entry O=C(NCCN1CCCC1)C(c1ccccc1)N1CCCCC1 (stereo not shown) [F 1533]
T

In plain terms, does CC(C)(Oc1ccc(Cl)cc1)C(=O)NCCN1CCCC1 [F 1541, hydrochloride] come in under 200 mg/kg for LD50?
T

Answer whether the compound O=C(O)c1ccccc1C(=O)NCCN1CCCC1 [F 1537] has LD50 strictly less than 200 mg/kg
F

Does O=C(NCCN1CCCC1)C(O)(c1ccccc1)c1ccccc1 [F 1535, hydrochloride] have LD50 strictly under 200 mg/kg?
F
